# test_method_notes: Solubility of SN-38 pro-drug complex in comparison with SN-38
# Type: physicochemical
# experimental_context: water

{"columns": ["compound", "solubility"],
 "data": [
  ["CCc1c2c(nc3ccc(O)cc13)-c1cc3c(c(=O)n1C2)COC(=O)[C@]3(O)CC [SN38, 7-Ethyl-10-hydroxy-camptothecin, reference compound]", "~2 µg/mL"]
]}
